# assayed.system: LZK (Homo sapiens)
# Construct: 10 nM LZK, catalytic domain, Carna Biosiences in assay buffer; purchased Carna Biosciences ('Carna Biosiences' [sic])
# Sequence (O43283 168-409 limits assumed): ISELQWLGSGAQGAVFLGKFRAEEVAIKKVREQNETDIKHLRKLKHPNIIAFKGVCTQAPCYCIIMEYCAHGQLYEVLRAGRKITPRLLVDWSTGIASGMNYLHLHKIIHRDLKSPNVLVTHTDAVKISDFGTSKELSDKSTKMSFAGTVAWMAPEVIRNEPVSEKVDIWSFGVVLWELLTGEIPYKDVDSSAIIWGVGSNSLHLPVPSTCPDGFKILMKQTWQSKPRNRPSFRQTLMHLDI
# test.protocol: LZK biochemical assay (TR-FRET, MKK7 phosphorylation)
# study.conditions: LZK catalytic domain, MKK7 substrate, 15 μM ATP
observed.property: IC50 (nM)

compound	IC50, nM
CC[C@H](C)NC(=O)c1cc(-c2cnn([C@@H](CC)c3ccc(C(F)(F)F)nc3)c2)cn2nc(N)nc12 (single isomer, unassigned)	4.5

(a) CC[C@H](C)NC(=O)c1cc(-c2cnn([C@H](c3ccc(C(F)(F)F)nc3)C3CC3)c2)cc2nc(N)nn12 (single isomer, unassigned)
(b) CC[C@H](C)NC(=O)c1cc(-c2cnn(C(c3c(F)cncc3F)C(C)C)c2)cc2nc(N)nn12 (mixture of isomers) [Example I-123]
(c) CC[C@H](c1ccc(C(F)(F)F)nc1)n1cc(-c2cc(C(=O)N[C@@H](C)CC)c3nc(N)nn3c2)cn1 (single isomer, unassigned)
Query: Your job: order these 3 records by IC50, ascending. Write the labels in rank order as requested.
Reply: a, c, b
